Tested on: endothelin-1 (ET-1) synthesis in porcine coronary artery endothelial cells (PCAECs)
test-name: Stimulated (FCS, angiotensin II, thrombin, TNFα) ET-1 release into the medium by PCAECs (ELISA)
Type: cell-based
condition-label: ICI182780 50 μmol/L; FCS 2.5%, 4 hours
Source text: Hearts from female pigs were obtained from a local slaughter house and placed in ice-cold oxygenated DMEM (Gibco, Rockville, Md. now Invitrogen, Carlsbad Calif., hereinafter “Gibco”) containing antibiotics (Gibco). The epicardial coronary arteries were isolated, and the fat and connective tissue were removed. […]
value-type: reversal by ICI182780 of the compound's inhibitory effect on FCS-stimulated ET-1 secretion

>>> df
                                   compound  measured_value
0  C[C@]12CC[C@@H]3c4cc(O)c(O)cc4CC[C@H]3[C@@H]1CC[C@@H]2O [2-hydroxyestradiol]             not
1  CCCCC(=O)O[C@H]1CC[C@H]2[C@@H]3CCc4cc(O)ccc4[C@H]3CC[C@]12C [estradiol valerate]        reversed
2  COc1cc2c(cc1O)CC[C@@H]1[C@@H]2CC[C@]2(C)[C@@H](O)CC[C@@H]12             not
3  C[C@]12CC[C@@H]3c4ccc(O)cc4CC[C@H]3[C@@H]1CC[C@@H]2OC(=O)CCC1CCCC1 [estradiol cypionate]        reversed
4  C[C@]12CC[C@@H]3c4ccc(OC(=O)c5ccccc5)cc4CC[C@H]3[C@@H]1CC[C@@H]2O [estradiol benzoate]        reversed
